# reported IC50; entries follow
target: Aspartyl/glutamyl-tRNA(Asn/Gln) amidotransferase subunit A (Streptococcus pyogenes serotype M1); experiment: In vitro inhibitory concentration against transferase activity of bacterial Glu-tRNA-Gln […] (Glu-AdT)
Sequence (Q99YC0 whole entry, looked up): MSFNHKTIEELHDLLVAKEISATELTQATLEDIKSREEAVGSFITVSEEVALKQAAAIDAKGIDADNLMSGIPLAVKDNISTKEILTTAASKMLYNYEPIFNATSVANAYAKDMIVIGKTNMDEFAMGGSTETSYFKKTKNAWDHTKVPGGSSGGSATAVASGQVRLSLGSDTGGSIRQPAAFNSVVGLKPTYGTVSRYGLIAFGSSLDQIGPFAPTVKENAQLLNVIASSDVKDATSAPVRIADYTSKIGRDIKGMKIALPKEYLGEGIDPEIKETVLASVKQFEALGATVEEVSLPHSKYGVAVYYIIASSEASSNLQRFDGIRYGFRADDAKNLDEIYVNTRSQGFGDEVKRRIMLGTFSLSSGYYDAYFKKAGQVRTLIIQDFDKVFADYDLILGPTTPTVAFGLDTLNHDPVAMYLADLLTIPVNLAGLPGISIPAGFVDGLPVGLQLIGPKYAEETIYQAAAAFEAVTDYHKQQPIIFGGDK
Readout kind: IC50 (µM)

CN[C@@H](CCB1O[C@@]2(C)CCC3C[C@@]2(O1)C3(C)C)C(=O)O :: 1.1
COC(=O)[C@@H](N)CCB(O)O :: 0.05
CC1(C)C2CC[C@]3(C)OB(CCC(N)CC(=O)O)O[C@]13C2 (stereo not given in full) :: 6.5
CC1(C)C2CC[C@]3(C)OB(CC[C@H](N)C(=O)NS(=O)(=O)c4ccccc4)O[C@]13C2 :: 20

Values from ChEMBL document CHEMBL1133968
